Provenance of the data: patent EP0096116B1

assay: Acute toxicity (method of Litchfield and Wilcoxon), rat; details: Wistar, in vivo, oral, os
readout.label: LD50

* CC1=CCC(C(C)(C)O)CC1OC(=O)c1cccs1 (stereo not shown) [Compound I] | > 4000 mg/kg

====

test: Acute toxicity (method of Litchfield and Wilcoxon), mouse; settings: Swiss, in vivo, oral, os
readout.label: LD50

- CC1=CCC(C(C)(C)O)CC1OC(=O)c1cccs1 (stereo not shown): > 4000 mg/kg
